Target: aggregated (oligomeric) P301S 2N4R tau, pHrodo-labelled (human, UniProt P10636 1-758, pHrodo Red maleimide label); further: test concentration or dose not given here
Sequence (P10636 other isoform, or with tags, fused parts or gaps P301S P301S): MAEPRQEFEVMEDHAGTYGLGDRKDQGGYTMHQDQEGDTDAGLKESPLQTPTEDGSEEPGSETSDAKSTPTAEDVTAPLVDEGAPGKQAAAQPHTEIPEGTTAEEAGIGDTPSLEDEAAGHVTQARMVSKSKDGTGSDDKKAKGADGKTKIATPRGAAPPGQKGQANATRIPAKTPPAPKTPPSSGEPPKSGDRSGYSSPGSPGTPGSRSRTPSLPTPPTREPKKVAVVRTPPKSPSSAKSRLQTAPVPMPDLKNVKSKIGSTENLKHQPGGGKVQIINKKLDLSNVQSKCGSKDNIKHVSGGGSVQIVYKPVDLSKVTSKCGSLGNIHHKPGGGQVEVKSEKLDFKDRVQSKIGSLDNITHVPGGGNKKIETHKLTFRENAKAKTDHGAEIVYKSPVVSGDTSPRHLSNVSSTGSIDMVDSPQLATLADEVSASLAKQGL
Assay: cell-based or functional assay
experimental endpoint: increase of aggregated tau uptake into human iPSC-derived microglia
Give your result as the value with the unit written after it.

Some solved cases for reference:
{"binder": "#44 VH4VK3 humanised hIgG1 (antibody, V domains shown, also called VH4Vκ3; Clone VH4VK3 (D)) VH: QVQLQESGPGLVKPSETLSLTCTVSGIDLSSYAMAWVRQAPGKGLEWIGCIDRRGGTFYASWVKGRFTISKDTSKTTVDLQMTSLTAEDTATYFCARDSGAFDPWGQGTLVTVSS VL: DIQMTQSPSSLSASVGDRVTITCQASQSVYDNYLAWYQQKPGQPPKLLIHAASNLASGVPSRFKGSGSGTEFTLTISSLQPDDFATYYCLGEFSCTTTDCNVFGGGTKVEIK", "result": "90.5%"}
{"binder": "#44_VH4VK4 humanised hIgG1 (antibody, V domains shown, also called VH4Vκ4; pVH/pVL) VH: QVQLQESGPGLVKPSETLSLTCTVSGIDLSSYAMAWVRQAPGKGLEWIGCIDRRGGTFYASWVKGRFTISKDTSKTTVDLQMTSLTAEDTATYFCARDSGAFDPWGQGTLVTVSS VL: DIQMTQSPSSLSASVGDRVTITCQASQSVYDNYLAWYQQKPGQPPKLLIHAASNLASGVPSRFSGSGSGTEFTLTISSLQPDDFATYYCLGEFSCTTTDCNVFGGGTKVEIK", "result": "115%"}
{"binder": "#44 VH4VK2 humanised hIgG1 (antibody, V domains shown, also called VH4Vκ2; Clone VH4VK2 (C)) VH: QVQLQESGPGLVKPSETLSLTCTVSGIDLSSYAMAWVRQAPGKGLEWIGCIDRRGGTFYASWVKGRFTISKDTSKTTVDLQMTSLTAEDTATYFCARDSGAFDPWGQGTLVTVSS VL: QIVMTQSPSSLSASVGDRVTITCQASQSVYDNYLAWYQQKPGQPPKLLIHAASNLASGVPSRFKGSGSGTEFTLTISSLQPDDFATYYCLGEFSCTTTDCNVFGGGTKVEIK", "result": "97.6%"}
{"binder": "#44 VH3VK3 humanised hIgG1 (antibody, V domains shown, also called VH3Vκ3; Clone VH3VK3 (A)) VH: QVQLQESGPGLVKPSETLSLTCTVSGIDLSSYAMAWVRQAPGKGLEWIGCIDRRGGTFYASWVKGRFTISKTSTTVDLQMTSLTAEDTATYFCARDSGAFDPWGQGTLVTVSS VL: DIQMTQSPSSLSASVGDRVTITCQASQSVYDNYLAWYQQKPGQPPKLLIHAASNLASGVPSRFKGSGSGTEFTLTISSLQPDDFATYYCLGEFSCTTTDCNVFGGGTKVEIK", "result": "77.7%"}

Please find the next binder below.
## Task What value of increase of aggregated tau uptake into human iPSC-derived microglia has been recorded for this entry: #44 VH3VK4 humanised hIgG1 (antibody, V domains shown, also called VH3Vκ4; Clone VH3VK4 (B)) VH: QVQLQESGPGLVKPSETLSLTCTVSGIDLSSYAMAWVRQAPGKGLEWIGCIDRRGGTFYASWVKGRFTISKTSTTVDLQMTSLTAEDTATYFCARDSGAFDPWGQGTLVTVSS VL: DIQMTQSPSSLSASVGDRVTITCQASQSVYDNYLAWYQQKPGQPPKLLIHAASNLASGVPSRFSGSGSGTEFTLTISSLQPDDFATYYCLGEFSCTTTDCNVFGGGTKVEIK
## Result 83.9%
